protocolNotes: Single ascending dose pharmacokinetics of intravenous CN-105 in healthy adults
conditionNotes: human, plasma, iv, 0.03 mg/kg
Where a SMILES comes first, the peptide text is derived from it.

# compound, Cmax
measured = [
    ("CC(=O)N[C@H](C(=O)N[C@@H](CO)C(=O)N[C@@H](CCCNC(=N)N)C(=O)N[C@@H](CCCNC(=N)N)C(=O)N[C@@H](CCCNC(=N)N)C(N)=O)C(C)C [CN-105] (Ac-VSRRR-NH2; N-terminus and C-terminus assumed)", "108 ng/mL"),
]

====

protocolNotes: Single ascending dose pharmacokinetics of intravenous CN-105 in healthy adults
conditionNotes: human, plasma, iv, 0.01 mg/kg
Where a SMILES comes first, the peptide text is derived from it.

# compound, unitDescriptor, Vd
measured = [
    ("CC(=O)N[C@H](C(=O)N[C@@H](CO)C(=O)N[C@@H](CCCNC(=N)N)C(=O)N[C@@H](CCCNC(=N)N)C(=O)N[C@@H](CCCNC(=N)N)C(N)=O)C(C)C [CN-105] (Ac-VSRRR-NH2; N-terminus and C-terminus assumed)", "L", 29.8),
]

====

protocolNotes: Single ascending dose pharmacokinetics of intravenous CN-105 in healthy adults
conditionNotes: human, plasma, iv, 0.1 mg/kg
Where a SMILES comes first, the peptide text is derived from it.

# compound, unitDescriptor, Cmax
rows = [
    ("CC(=O)N[C@H](C(=O)N[C@@H](CO)C(=O)N[C@@H](CCCNC(=N)N)C(=O)N[C@@H](CCCNC(=N)N)C(=O)N[C@@H](CCCNC(=N)N)C(N)=O)C(C)C [CN-105] (Ac-VSRRR-NH2; N-terminus and C-terminus assumed)", "ng/mL", 408),
]

====

protocolNotes: Single ascending dose pharmacokinetics of intravenous CN-105 in healthy adults
conditionNotes: human, plasma, iv
Where a SMILES comes first, the peptide text is derived from it.

# compound, half-life / h
rows = [
    ("CC(=O)N[C@H](C(=O)N[C@@H](CO)C(=O)N[C@@H](CCCNC(=N)N)C(=O)N[C@@H](CCCNC(=N)N)C(=O)N[C@@H](CCCNC(=N)N)C(N)=O)C(C)C [CN-105] (Ac-VSRRR-NH2; N-terminus and C-terminus assumed)", 3.5),
]

====

protocolNotes: Single ascending dose pharmacokinetics of intravenous CN-105 in healthy adults
conditionNotes: human, plasma, iv, 0.03 mg/kg
Where a SMILES comes first, the peptide text is derived from it.

# compound, AUC(0-inf) (ng·h/mL)
measured = [
    ("CC(=O)N[C@H](C(=O)N[C@@H](CO)C(=O)N[C@@H](CCCNC(=N)N)C(=O)N[C@@H](CCCNC(=N)N)C(=O)N[C@@H](CCCNC(=N)N)C(N)=O)C(C)C [CN-105] (Ac-VSRRR-NH2; N-terminus and C-terminus assumed)", 281),
]

====

protocolNotes: Single ascending dose pharmacokinetics of intravenous CN-105 in healthy adults
conditionNotes: human, plasma, iv, 0.3 mg/kg
Where a SMILES comes first, the peptide text is derived from it.
observationType: clearance (mL/min)

# molecule, observationType, unitDescriptor, recordedValue
records = [
    ("CC(=O)N[C@H](C(=O)N[C@@H](CO)C(=O)N[C@@H](CCCNC(=N)N)C(=O)N[C@@H](CCCNC(=N)N)C(=O)N[C@@H](CCCNC(=N)N)C(N)=O)C(C)C [CN-105] (Ac-VSRRR-NH2; N-terminus and C-terminus assumed)", "clearance", "mL/min", 147),
]
